Target: Vascular endothelial growth factor A, long form (Homo sapiens, UniProt P15692, EX4DEL)
Assay: Binding affinity to His-tagged human recombinant truncated del4 VEGF165 (amino acid residues C137 to R165) expressed in Escherichia coli BL21 (DE3) cells by surface plasmon resonance assay
MEASURED ENDPOINT: Kd (nM)
Provide only the numeric value, understood in nM.

Qu. Look up Kd with Vascular endothelial growth factor A, long form (Homo sapiens, UniProt P15692, EX4DEL) for this molecule: CCCCCCCCCCCCCCCCCC(=O)OCC(CO[C@@H]1O[C@H](CS(=O)(=O)O)[C@@H](O)[C@H](O)[C@H]1O)OC(=O)CCCCCCCCCCCCCCCCC (stereo partly specified)
Ans. 1400

----------
Target: Vascular endothelial growth factor A, long form (Homo sapiens, UniProt P15692)
Sequence (P15692 whole entry): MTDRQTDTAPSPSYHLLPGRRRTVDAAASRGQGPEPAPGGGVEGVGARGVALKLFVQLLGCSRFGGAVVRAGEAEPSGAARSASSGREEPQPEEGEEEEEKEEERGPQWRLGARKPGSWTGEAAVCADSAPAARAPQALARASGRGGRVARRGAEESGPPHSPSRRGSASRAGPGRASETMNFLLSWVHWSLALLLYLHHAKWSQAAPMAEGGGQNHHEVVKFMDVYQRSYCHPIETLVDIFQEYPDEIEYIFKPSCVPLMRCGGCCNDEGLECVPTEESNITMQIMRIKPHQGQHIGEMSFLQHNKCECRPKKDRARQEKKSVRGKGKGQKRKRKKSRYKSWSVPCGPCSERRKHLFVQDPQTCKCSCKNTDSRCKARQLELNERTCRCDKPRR
Assay: Binding affinity to His-tagged human recombinant full length VEGF165 (amino acid residues A1 to R165) expressed in Escherichia coli BL21 (DE3) cells by surface plasmon resonance assay
MEASURED ENDPOINT: Kd (µM)
Provide only the numeric value, understood in µM.

Look over these answered cases.
| MOLECULE | MEASURED NUMBER |
| --- | --- |
| CCCCCCCCCCCCCCCCCC(=O)OCC(O)CO[C@@H]1O[C@H](CS(=O)(=O)O)[C@@H](O)[C@H](O)[C@H]1O (some centres undefined) | 16 |
| CCCCCCCCCCCCCCCCCC(=O)OCC(CO[C@@H]1O[C@H](CS(=O)(=O)O)[C@@H](O)[C@H](O)[C@H]1O)OC(=O)CCCCCCCCCCCCCCCCC (some centres undefined) | 4.6e-05 |
| CCCCCCCCCCCCCCCCCC(=O)OCC(O)CO[C@H]1O[C@H](CS(=O)(=O)O)[C@@H](O)[C@H](O)[C@H]1O (some centres undefined) | 18 |

Turning now to a further record.
Qu. Look at this molecule and give its reported Kd. CCCCCCCCCCCCCCCCCC(=O)OCC(CO[C@H]1O[C@H](CS(=O)(=O)O)[C@@H](O)[C@H](O)[C@H]1O)OC(=O)CCCCCCCCCCCCCCCCC (some centres undefined)
Ans. 2.5e-05

----------
Molecular target: Vascular endothelial growth factor A, long form (Homo sapiens, UniProt P15692, EX2DEL)
Experiment: Binding affinity to His-tagged human recombinant truncated del2 VEGF165 (amino acid residues A111 to R165) expressed in Escherichia coli BL21 (DE3) cells by surface plasmon resonance assay
MEASURED ENDPOINT: Kd (nM)
Provide only the numeric value, understood in nM.

Qu. Look at this compound and give its reported Kd. CCCCCCCCCCCCCCCCCC(=O)OCC(CO[C@@H]1O[C@H](CS(=O)(=O)O)[C@@H](O)[C@H](O)[C@H]1O)OC(=O)CCCCCCCCCCCCCCCCC (stereo partly specified)
Ans. 0.025

----------
Molecular target: DNA polymerase lambda (Homo sapiens) (UniProt Q9UGP5)
MEASURED ENDPOINT: Kd (nM)
Provide only the numeric value, understood in nM.

Qu. Look up Kd with DNA polymerase lambda (Homo sapiens) (UniProt Q9UGP5) for this compound: CCCCCCCCCCCCCCCCCC(=O)OCC(CO[C@@H]1O[C@H](CS(=O)(=O)O)[C@@H](O)[C@H](O)[C@H]1O)OC(=O)CCCCCCCCCCCCCCCCC (stereo partly specified)
Ans. 9.9
